test system: NCI/ADR-RES ovarian; test: NCI tumour cell line growth inhibition, 48 h
Measurement Label: TGI

## Task What measured TGI is associated with `COC(=O)c1ccc(-n2c(C)nc(=O)c(-c3ccccc3)c2C)cc1` on NCI/ADR-RES ovarian?
## Result > 100 µM

---
## Task What measured TGI is associated with O=C1CC(NC2CC(=O)c3c(Br)sc(Br)c32)c2c(Br)sc(Br)c21 (stereo not given) on NCI/ADR-RES ovarian?
## Result > 86.8 µM

## Task What measured TGI is associated with `Clc1ccc(/C=C/c2nc(-c3ccc(Cl)cc3)cn3c2nc2ccccc23)cc1` on NCI/ADR-RES ovarian?
## Result > 100 µM

## Task What measured TGI is associated with Cc1cn(C2CC(N=[N+]=[N-])C(CO)O2)c(=O)[nH]c1=O (stereo not given) on NCI/ADR-RES ovarian?
## Result > 1000 µM

## Task What measured TGI is associated with `CC(C)[Si](Oc1cc2c3c(ccc2c(O)c1[C@@H](C)CO[Si](C)(C)C(C)(C)C)C(C)(C)CCC3)(C(C)C)C(C)C` on NCI/ADR-RES ovarian?
## Result > 100 µM

###

test system: LOX IMVI melanoma; assay: NCI tumour cell line growth inhibition, 48 h
Measurement Label: TGI (µM)
Please give a number only; it is taken to be in µM.

## Task Report TGI for `Cc1cc(N2CCN(C)CC2)nc(N(CCNc2ccnc3cc(Cl)ccc23)Cc2ccco2)n1` please.
## Result 3.56

We next turn to a different compound, shown below.
## Task Report TGI for Nc1ncnc2c1nc(N)n2C1OC(CO)C(O)C1O (stereo not given) please.
## Result 1.17

###

Recorded GI50 by entry
tested on: SF-539 CNS; experiment: NCI tumour cell line growth inhibition, 48 h

## Task Report GI50 for `O=C1c2cccc3cccc(c23)C(=O)N1CC#Cc1ccc2c3c(cccc13)C(=O)N(CCN1CCNCC1)C2=O` please.
## Result 1.82 µM

## Task Report GI50 for `NS(=O)(=O)c1cccc(-c2cc3ccncc3cc2OCc2ccccc2)c1` please.
## Result 8.62 µM

## Task Report GI50 for `CCOC(=O)C1=C(C)NC(C)=C(C(=O)OCC)C1c1cc(Br)c(O)c(OC)c1` please.
## Result 2.64 µM

We next turn to a different molecule, shown below.
## Task Report GI50 for `CC(=O)Nc1c(I)c(C(=O)O)c(I)c(N(C)C(C)=O)c1I` please.
## Result > 100 µM

###

system: SN12C renal; assay: NCI tumour cell line growth inhibition, 48 h
Recorded TGI by entry

Look over these answered cases.
## Task Report TGI for `CCOC(=O)c1c(C(F)(F)F)n([O-])c2ccc(Cl)cc2[n+]1=O` please.
## Result 10.3 µM

## Task Report TGI for `N#Cc1nc(-c2ccccc2O)oc1N` please.
## Result > 100 µM

## Task Report TGI for `CSc1ncc2c(C#N)c3ccccn3c(=O)c2n1` please.
## Result > 100 µM

## Task Report TGI for `CCc1ccc(Oc2nccc(-c3c(-c4ccc(F)cc4)ncn3C3CCNCC3)n2)cc1` please.
## Result 13.9 µM

## Task Report TGI for Cc1ccc(C2NC(=S)N3C(c4ccc(C)cc4)NC(=S)N23)cc1 (stereo unspecified) please.
## Result 19.4 µM

---
## Task Report TGI for `NS(=O)(=O)c1cccc(-c2cc3ccncc3cc2OCc2ccccc2)c1` please.
## Result > 25 µM

## Task Report TGI for `O=c1c2cc(Br)ccc2[nH]c(=S)n1-c1ccccc1` please.
## Result > 100 µM

## Task Report TGI for `CSC1=N/C(=C\c2ccccc2)C(=O)N1CN1CCOCC1` please.
## Result > 100 µM

## Task Report TGI for Cc1ccc(S(=O)(=O)C(C#N)c2nc3ccccc3nc2N2CCOCC2)cc1 (stereo unspecified) please.
## Result 96.4 µM

## Task Report TGI for `COc1ccccc1NC(=O)CC(=O)n1nc(-c2ccccc2)c(N=Nc2ccccc2[N+](=O)[O-])c1-c1ccccc1` please.
## Result > 100 µM

## Task Report TGI for `CCOC(=O)c1ncn2c1[nH]c(=O)c1ccccc12` please.
## Result > 100 µM

## Task Report TGI for `S=C1NCCN1C(=S)NC1CCCCC1` please.
## Result > 100 µM

## Task Report TGI for COc1cccc(C(C#N)NC23CC4CC(CC(C4)C2)C3)c1 (stereo unspecified) please.
## Result > 100 µM

## Task Report TGI for `COc1ccc(/C=c2\sc3nnc(CCC(=O)Nc4cccc(C(F)(F)F)c4)n3c2=O)cc1` please.
## Result > 100 µM

## Task Report TGI for CC12OC3(C(O)C1O)C(C(=O)O[C@H]3CO[Si](C)(C)C(C)(C)C)C2S(=O)(=O)c1ccccc1 (stereo partly specified) please.
## Result > 100 µM

## Task Report TGI for `C=C1C(=O)O[C@H]2[C@H]1CC/C(COC(=O)c1cccc3ccccc13)=C\CC[C@@]1(C)O[C@@H]21` please.
## Result 3.67 µM

## Task Report TGI for `COc1ccc2oc(-c3cc4cc(OC)ccc4o3)cc2c1` please.
## Result > 100 µM

## Task Report TGI for `O=C1NC(=O)C(N2CCc3ccccc32)=C1c1ccc(Cl)cc1` please.
## Result > 25 µM

## Task Report TGI for CC1=C(S(=O)c2ccc(C)cc2)CCC2(CCCCO2)O1 (stereo unspecified) please.
## Result > 100 µM

## Task Report TGI for Cc1cn(C2CC(N=[N+]=[N-])C(CO)O2)c(=O)[nH]c1=O (stereo unspecified) please.
## Result > 1000 µM

## Task Report TGI for `CCn1c(SCC(=O)NNC(=S)Nc2ccc(Cl)cc2)nc2ccccc2c1=O` please.
## Result > 100 µM

###

tested on: NCI-H23 lung; experiment: NCI tumour cell line growth inhibition, 48 h; in the data active = GI50 below about 0.43 µM; inactive = the rest
Valid outcomes are listed here; reply with one: yes (1) = active, no (0) = inactive

## Task Outcome? Nc1cccc2c1CN(C1CCC(=O)NC1=O)C2=O (stereo unspecified)
## Result no (0)

## Task Outcome? `O=Cc1c[nH]c2ccc(-c3csc4ccccc34)cc12`
## Result no (0)

---
## Task Outcome? `C[C@@H](Oc1cc(-c2cnn(C3CC4(CNC4)C3)c2)cnc1N)c1c(Cl)ccc(F)c1Cl`
## Result no (0)

## Task Outcome? NC(Cc1ccc(O)cc1)C(=O)N/N=C/c1ccc(N(CCCl)CCCl)cc1 (stereo unspecified)
## Result no (0)

## Task Outcome? `Cc1cc(NS(=O)(=O)c2ccc(NC(=O)COc3ccc(-c4cc5ccccc5[nH]4)cc3)cc2)no1`
## Result no (0)

## Task Outcome? `O=C(CCCCCNC1=CC(=O)c2ccccc2C1=O)NCCC[Te]c1ccccc1`
## Result yes (1)

###

tested on: MDA-MB-435
Valid outcomes are listed here; reply with one: label 1 = active, label 0 = inactive

## Task Outcome? `c1cc2ccc3cc2cc1CNCCOCCNCc1ccc2ccc(cc2c1)CNCCOCCNC3`
## Result label 0

## Task Outcome? `Cc1cc(NS(=O)(=O)c2ccc(NC(=O)COc3ccc(-c4cc5ccccc5[nH]4)cc3)cc2)no1`
## Result label 0

## Task Outcome? `O=C1NC(=O)C(N2CCc3ccccc32)=C1c1ccc(Cl)cc1`
## Result label 0

## Task Outcome? `O=C1/C(=C\c2ccc([N+](=O)[O-])cc2)CS(=O)(=O)C/C1=C/c1ccc([N+](=O)[O-])cc1`
## Result label 1

## Task Outcome? Nc1ncnc2c1nc(N)n2C1OC(CO)C(O)C1O (stereo not given)
## Result label 1

###

test system: K-562 leukemia
Valid outcomes are listed here; reply with one: active, inactive

Examples with answers:
## Task Outcome? `O=C1NC(=O)C(N2CCc3ccccc32)=C1c1ccc(Cl)cc1`
## Result inactive

## Task Outcome? `CCN1CCN(CC(=O)Nc2nc3ccc(NCc4ccc(C)cc4)cc3s2)CC1`
## Result inactive

## Task Outcome? `COc1cc2c(cc1OCc1ccccc1)N=C[C@@H]1C[C@@H](F)CN1C2=O`
## Result inactive

## Task Outcome? `O=Cc1c[nH]c2ccc(-c3csc4ccccc34)cc12`
## Result inactive

---
## Task Outcome? `O=C(N/N=C/c1ccncc1)c1ccc(C(F)(F)F)nc1Nc1cccc(C(F)(F)F)c1`
## Result inactive

## Task Outcome? `CCN(CC)CCNC(=O)c1cc(Cl)c(N)cc1OC`
## Result inactive

## Task Outcome? NC(Cc1ccc(O)cc1)C(=O)N/N=C/c1ccc(N(CCCl)CCCl)cc1 (configuration not stated)
## Result inactive

## Task Outcome? `COC(=O)c1c2c(c(C)[n+]([O-])c1C)C(=O)C=C(NCc1ccc(Br)cc1)C2=O`
## Result active

## Task Outcome? `CCOP(=O)(CCN1CCN(CCCCCOc2cc3c(cc2OC)C(=O)N2CCC[C@H]2C=N3)CC1)OCC`
## Result inactive

## Task Outcome? `Cc1ccc(-n2nnc3c(sc4ccccc43)c2=O)cc1`
## Result inactive

## Task Outcome? COc1ccc(C2=NNC(c3cc(Cc4ccc(O)c(C5CC(c6ccc(OC)cc6)=NN5)c4)ccc3O)C2)cc1 (configuration not stated)
## Result inactive

## Task Outcome? `O=c1c(-c2ccc3c(c2)OCO3)coc2c(CO)c(O)ccc12`
## Result inactive
